# reported Potency; entries follow
# TEST SUMMARY: qHTS Assay for Modulators of miRNAs and/or Inhibitors of miR-21; note: potency is the fitted concentration of half-maximal effect; nearly all actives have a fitted effect of over 55% in size
# DETAILS: HeLa miR-21-FLuc reporter, luciferase luminescence, 48 h; actives lower the signal
Among all 340,000 compounds or so, about 3,300 (0.97%) were called active. Roughly 9% stayed inconclusive and do not appear here. The list shows a part of the results.

COMPOUND: Cc1nc2ccc(NC(=O)C3COc4ccccc4O3)cc2s1 (stereo unspecified)
Potency: 7.36 µM (active)
//
COMPOUND: CC(C)(C)n1cc(C(=O)c2ccc3ccccc3c2O)cn1
Potency: 0.233 µM (active)
//
COMPOUND: O=C(Nc1nc2c(s1)CCCCCC2)Nc1ccc(F)cc1F
Potency: 0.329 µM (active)
//
COMPOUND: Cc1nc(Cl)sc1C(=O)Nc1ccc2ccccc2c1
Potency: 5.85 µM (active)

# get_value(readout='Potency', item= Cc1ccc(NN=C2C(=O)OC(C)(C)OC2=O)c(C)c1 )
11.7 µM (active)

# get_value(readout='Potency', item= COc1ccc2nc(NC3=NCCN3)sc2c1 )
1.65 µM (active)
